Structures can show the parent of a compound that is named as a salt.
# reported melting point; entries follow
Endpoint: melting point

In [3]: df
Out[3]:
                                   compound    recorded_result
0  N#CCN1CCC(CNc2ncc3c(n2)NC(=O)N(c2ccccc2Cl)C3)CC1 (as salt: hydrochloride)  207.2 to 207.7 °C
1  O=C1CCC(Nc2ncc3c(n2)NC(=O)N(c2ccccc2Cl)C3)CC1 (as salt: hydrochloride)      204 to 210 °C
2  CN1C(=O)N(c2ccccc2Cl)Cc2cnc(NC3(CO)CCCCC3)nc21 (as salt: hydrochloride)  203.7 to 207.8 °C
3  NC(=O)O[C@H]1CC[C@H](Nc2ncc3c(n2)NC(=O)N(c2ccccc2Cl)C3)CC1 (as salt: hydrochloride)    267 to 267.6 °C
4  Cc1ccccc1N1Cc2cnc(NC3CCN(CCO)CC3)nc2N(C)C1=O      250 to 257 °C
5  O=C(O)CN1C(=O)N(c2ccccc2Cl)Cc2cnc(N[C@H]3CC[C@H](O)CC3)nc21      230 to 240 °C
